Measurement Type: melting point

CS(=O)(=O)c1ccc(-c2cnc(N(Cc3ccc(C(F)(F)P(=O)(O)O)c(Cl)c3)c3ccc(Cl)c(Cl)c3)o2)cc1    141 to 143 °C
N=C(Nc1ccc(Cl)cc1)Nc1ncccc1OCc1ccccc1    170 to 172 °C
CS(=O)(=O)C(=C1CN(C(c2ccccc2)c2ccccc2)C1)c1ccc(O)cc1    211 °C
COc1nc(C)c2c(c1C=O)CCCC2O (stereo unspecified)    107 °C

Looking for the measured melting point of "Cc1cc(Cl)ccc1N=c1ssnc1Cl" , can you help? 130 to 131 °C

Then this compound: CCOC(=O)C1(c2ccccc2)CCC=CC1Cl (stereo unspecified) 137 to 139 °C
